# Target or system: HIV-1 Env of WITO.33 (HIV-1)
# Protocol notes: cell-based or functional assay
Outcome measure: neutralization IC50

- Binder: "CAP256-VRC26.06 (antibody, V domains shown) VH: EVQLIESGGGVVQPGRSLRLSCGASGFSFNNYGMHWVRQAPGKGLEWVAGISFAGIKKYYGTSVKGRFTISRDNSKNNFYLQMNSLRVEDTALYYCARDLRELECEEWTLYNYYDFGSRGPCVDPRGVAGSFDVWGQGTMVTVSS VL: QSVLTQPPSVSAAPGQKVTISCSGSTSKIGQNSVSWYQQLPGTAPKLLIYENDRRPSGTPDRFSGSKSGTSATLAITGLQTGDEAEYYCETWDGSGGVFGTGTKVTVLG"
  Outcome measure: "neutralization IC50"
  Result: "0.003 µg/mL"
- Binder: "CAP256-VRC26.11 (antibody, V domains shown) VH: EVQLVESGGGVVPPGKSLTLSCVASRFTFSAFGMHWVRQAPGKGLEWVASISFAGIKKYYADSVKGRFSISRDNSNTLFLQMNGLRGEDTGLYHCVKDMRELECEEWASDYYDFGKPQPCLDRRGVSGISAWWGPGTMVTVSS VL: QSVLTQPPSVSAAPGQNVTISCSGPPSHIEKNDVSWYQRLPGMAPKMVIYESKRRPLGIPVRFSASRSGSSATLVITGLQTADEADYYCGTWDGRMNFGTGTTVSVLG"
  Outcome measure: "neutralization IC50"
  Result: "> 50 µg/mL"
- Binder: "CAP256-VRC26.01 (antibody, V domains shown) VH: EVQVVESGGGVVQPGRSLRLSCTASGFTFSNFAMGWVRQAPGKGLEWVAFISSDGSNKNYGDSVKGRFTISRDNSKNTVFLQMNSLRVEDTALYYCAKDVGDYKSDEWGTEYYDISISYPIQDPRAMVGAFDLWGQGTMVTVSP VL: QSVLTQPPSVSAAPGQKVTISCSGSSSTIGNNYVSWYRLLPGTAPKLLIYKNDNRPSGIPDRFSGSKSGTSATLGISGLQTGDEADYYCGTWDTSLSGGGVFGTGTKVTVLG"
  Outcome measure: "neutralization IC50"
  Result: "> 50 µg/mL"
